These measurements were taken from patent US20230357415A1.

Target: T1, purified sIL-5Rα (Asp1-Asn313 of SEQ ID NO: 66) (Homo sapiens (Human), UniProt Q01344 21-333)
T1 construct: also called the purified sIL-5Rα
T1 sequence: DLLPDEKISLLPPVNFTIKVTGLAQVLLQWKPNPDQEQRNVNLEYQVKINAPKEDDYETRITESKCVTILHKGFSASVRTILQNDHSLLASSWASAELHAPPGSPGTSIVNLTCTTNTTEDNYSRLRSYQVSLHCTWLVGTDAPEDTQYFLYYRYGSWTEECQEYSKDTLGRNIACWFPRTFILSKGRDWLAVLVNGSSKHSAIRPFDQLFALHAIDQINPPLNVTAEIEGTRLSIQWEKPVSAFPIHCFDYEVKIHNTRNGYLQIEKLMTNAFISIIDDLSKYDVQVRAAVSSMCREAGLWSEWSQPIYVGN
Assay: BLI (Octet QKe), antibody on AHC sensor, purified sIL-5Rα in solution, 1:1 model
recorded.metric: koff (s⁻¹)
Report the figure in s⁻¹ without appending any unit label.

binder: 5R65.39 (antibody, IgG1, V domains shown, IgG1) VH: QVQLVQSGAEVKKPGSSVKVSCKASGYTFTSYWINWVRQAPGQGLEWIGHIYPNKNENYYNHKFKDKATLTVDKSTNTAYMELSSLRSEDTAVYYCTREFYGRSRYSAMDYWGQGTTLTVSS VL: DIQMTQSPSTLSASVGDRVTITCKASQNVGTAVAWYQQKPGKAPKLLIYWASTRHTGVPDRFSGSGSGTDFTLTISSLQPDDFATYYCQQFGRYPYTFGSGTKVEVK
result.unit: s⁻¹
koff: 0.000171
//
binder: 5R65.10 (antibody, IgG1, V domains shown, IgG1) VH: QVQLVQSGAEVKKPGSSVKVSCKASGYTFTSYWINWVRQAPGQGLEWIGHIYPNKNENYYNHKFKDKATLTVDKSTNTAYMELSSLRSEDTAVYYCTREYYGRSYYAAMDYWGQGTTLTVSS VL: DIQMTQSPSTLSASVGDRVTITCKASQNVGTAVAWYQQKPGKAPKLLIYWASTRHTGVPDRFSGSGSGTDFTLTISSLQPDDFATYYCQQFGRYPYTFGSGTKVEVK
result.unit: s⁻¹
koff: 0.000201

Now look at this one.
Q: Can you look up the measured koff of 5R65.14 (antibody, IgG1, V domains shown, IgG1) VH: QVQLVQSGAEVKKPGSSVKVSCKASGYTFTSYWINWVRQAPGQGLEWIGHIYPNKNENYYNHKFKDKATLTVDKSTNTAYMELSSLRSEDTAVYYCTREHYGRPYYNAMDYWGQGTTLTVSS VL: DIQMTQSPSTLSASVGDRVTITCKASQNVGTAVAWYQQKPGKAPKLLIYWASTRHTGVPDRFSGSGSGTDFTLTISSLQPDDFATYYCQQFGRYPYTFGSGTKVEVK for me?
Ans: 0.000199
